Hey, just so you know, these numbers are from PubChem BioAssay AID1030.

Target: Aldehyde dehydrogenase 1A1 (Homo sapiens)
Assay: qHTS Assay for Inhibitors of Aldehyde Dehydrogenase 1 (ALDH1A1)
Conditions: Purified ALDH1A1, NADH fluorescence, propionaldehyde substrate; series mostly up to 75.3 µM
Screen size: about 220,000 compounds; about 16,000 (7.3%) were called active. Inconclusive results (about 25%) are left out. Calls come from the whole dose curve; as a rule, active = well fitted inhibition curve with a large enough effect (not every such curve was filed as active); inconclusive = small, poorly fitted or top-dose-only effect, or another doubt; inactive = no such curve, though single readings can be large or run the other way. Only a selection was taken, and actives are over-represented in it overall.
Classes used: active, inactive

cpdSmiles: O=[N+]([O-])c1ccccc1OCCCCN1CCCCC1
groupLabel: inactive
--
cpdSmiles: CCOc1cc(/C=C2/N=C(c3ccc(C(C)(C)C)cc3)OC2=O)cc(Cl)c1OS(C)(=O)=O
groupLabel: active
--
cpdSmiles: CCOC(=O)CCCNC(=O)COC(=O)c1cc(Br)c(Br)s1
groupLabel: inactive
--
cpdSmiles: O=C1/C(=C\Nc2ccccc2)CCN1c1ncccn1
groupLabel: active
--
cpdSmiles: CCOc1ccc(S(=O)(=O)NCCSc2ccccc2)cc1
groupLabel: active
--
cpdSmiles: COCc1c(N)c(C)nc(Cl)c1C#N
groupLabel: inactive
--
cpdSmiles: COc1ccc(-c2nnc3ccc(SCc4ccccc4)nn23)cc1
groupLabel: inactive
--
cpdSmiles: O=C(Cc1ccccc1)NNC(=O)C1CCN(c2ncccn2)CC1
groupLabel: inactive
--
cpdSmiles: COCCNC(=O)c1ccccc1NS(=O)(=O)c1ccc(C)c([N+](=O)[O-])c1
groupLabel: inactive
--
cpdSmiles: COc1ccccc1N1CCN(C(=O)CSc2nnc(-c3ccoc3C)o2)CC1
groupLabel: active
--
cpdSmiles: Fc1ccc(-c2csc(-c3ccc(C4SCCS4)cc3)n2)cc1F
groupLabel: inactive

---

Biological target: Aldehyde dehydrogenase 1A1 (Homo sapiens)
Assay: qHTS Assay for Inhibitors of Aldehyde Dehydrogenase 1 (ALDH1A1); note: potency is the fitted concentration of half-maximal effect
Conditions: Purified ALDH1A1, NADH fluorescence, propionaldehyde substrate; series mostly up to 75.3 µM
Out of some 220,000 compounds screened, about 16,000 (7.3%) were called active. Roughly 25% stayed inconclusive and do not appear here. What follows is part of a selection rich in actives, with near analogues and random picks from the rest.

molecule: Cc1ccc(NC(=O)CC(=O)Nc2ccc(C)cc2)cc1
Potency: inactive
--
molecule: CN1CCN(c2nc(Nc3ccc(O)cc3)nc3ccccc23)CC1
Potency: inactive
--
molecule: Cn1c(=O)n(C)c2cc(NS(=O)(=O)c3ccc(F)cc3)ccc21
Potency: inactive
--
molecule: Cc1c(NC(=S)NCc2ccc(F)cc2)cccc1[N+](=O)[O-]
Potency: 31.6 µM (active)
--
molecule: Cc1cc(C)cc(NC(=S)NCc2ccc(F)cc2)c1
Potency: inactive
--
molecule: O=C(CCN1C(=O)/C(=C/c2cccs2)SC1=S)NNC(=O)c1cccc(O)c1
Potency: inactive
--
molecule: O=S(=O)(Nc1ccc(Oc2ncccn2)c(Cl)c1)c1ccc(F)cc1
Potency: 10 µM (active)
--
molecule: CN(Cc1cccc2ncccc12)C(=O)CC1C(=O)NCCN1Cc1ccc(F)cc1 (stereo unspecified)
Potency: inactive
--
molecule: Cc1cccc(NC(=S)NCCc2ccc(F)cc2)c1C
Potency: inactive
--
molecule: O=S(=O)(Nc1ncccn1)c1ccc(NS(=O)(=O)c2cccc(Cl)c2Cl)cc1
Potency: inactive
--
molecule: CCNC(=S)N1CCN(C(=O)c2ccco2)CC1
Potency: inactive

---

Biological target: Aldehyde dehydrogenase 1A1 (Homo sapiens)
Assay: qHTS Assay for Inhibitors of Aldehyde Dehydrogenase 1 (ALDH1A1)
Settings: Purified ALDH1A1, NADH fluorescence, propionaldehyde substrate; series mostly up to 75.3 µM
In all, about 220,000 compounds went through this assay and about 16,000 (7.3%) were called active. Another 25% or so got no clear call; they are omitted. The call rests on the fitted dose curve; in most records, active means well fitted inhibition curve with a large enough effect (not every such curve was filed as active); inconclusive means small, poorly fitted or top-dose-only effect, or another doubt; inactive means no such curve, though single readings can be large or run the other way. For the sample, actives were picked, then their nearest neighbours and some compounds at random.
Classes used: active, inactive

compound: CCCCN(C)CCNC(=O)CSCc1ccc(C)cc1
assayTarget: Aldehyde dehydrogenase 1A1 (Homo sapiens)
groupLabel: inactive
//
compound: Cc1ccc(S(=O)(=O)CCC(=O)OCc2ccccc2)cc1
assayTarget: Aldehyde dehydrogenase 1A1 (Homo sapiens)
groupLabel: inactive
//
compound: Cc1ccc(CSCC(N)C(=O)O)cc1 (stereo unspecified)
assayTarget: Aldehyde dehydrogenase 1A1 (Homo sapiens)
groupLabel: active
//
compound: Cc1ccnc2nc(C(=O)Nc3nnc(-c4ccccc4)o3)nn12
assayTarget: Aldehyde dehydrogenase 1A1 (Homo sapiens)
groupLabel: inactive
//
compound: CN(C(=O)CSc1nnc(Nc2ccccc2)s1)C1CCS(=O)(=O)C1 (stereo unspecified)
assayTarget: Aldehyde dehydrogenase 1A1 (Homo sapiens)
groupLabel: inactive
//
compound: CCCc1nc2ccccc2c(C(=O)OCC(=O)c2ccc3c(c2)NC(=O)CO3)c1CC
assayTarget: Aldehyde dehydrogenase 1A1 (Homo sapiens)
groupLabel: inactive
